- targetOrSystem: NAMPT (Homo sapiens)
- Construct: His tag; host or cells: E. coli
- Sequence (P43490 whole entry): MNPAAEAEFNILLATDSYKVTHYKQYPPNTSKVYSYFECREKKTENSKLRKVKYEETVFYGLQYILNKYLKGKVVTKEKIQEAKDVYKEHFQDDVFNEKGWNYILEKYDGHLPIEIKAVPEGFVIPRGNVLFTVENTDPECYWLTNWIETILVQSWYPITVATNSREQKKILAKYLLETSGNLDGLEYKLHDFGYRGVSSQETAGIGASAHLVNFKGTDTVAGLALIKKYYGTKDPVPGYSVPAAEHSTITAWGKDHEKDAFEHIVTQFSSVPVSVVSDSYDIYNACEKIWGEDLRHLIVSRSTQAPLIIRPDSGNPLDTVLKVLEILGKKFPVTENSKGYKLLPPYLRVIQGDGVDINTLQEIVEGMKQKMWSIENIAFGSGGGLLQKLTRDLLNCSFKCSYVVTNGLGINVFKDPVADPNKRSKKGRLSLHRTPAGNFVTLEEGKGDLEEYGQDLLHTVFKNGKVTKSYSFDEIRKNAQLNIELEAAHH
- assayProcedure: Biochemical inhibition assay: NAMPT enzymatic reaction, NMN quantified by mass spectrometry
- conditionSet: NAMPT enzymatic assay; read-out: Biochem IC50
propertyMeasured: pIC50
Scale: pIC50 equals -log10([C]), with [C] in mol/L.

See these solved cases before continuing.
Req: Supply pIC50 value. Item: `O=C(NCc1ccc(S(=O)(=O)c2ccc(N3CCOCC3)nc2)cc1)c1cc2cnccc2[nH]1`
Resp: 8.02

Req: Output pIC50 of `O=C(NCc1ccc(S(=O)(=O)c2ccc3ncccc3c2)cc1)c1cc2ccncc2o1`
Resp: 8.14

Req: State its pIC50 for this molecule: `COCc1cccc(S(=O)(=O)c2ccc(CNC(=O)c3cc4ccncc4o3)cc2)c1`
Resp: 7.73

Req: Please report the measured pIC50 for `O=C(NCc1ccc(S(=O)(=O)c2ccc(F)c(OCC(F)(F)F)c2)cc1)c1cnc2[nH]ncc2c1`
Resp: 8.00

Req: Return pIC50 (reported value) for this molecule: `O=C(NCc1ccc(S(=O)(=O)c2cccc(N3CCCC3)c2)cc1)c1cc2cnccc2[nH]1`
Resp: 7.87

New cases:
Req: For the molecule `O=C(NCc1ccc(S(=O)(=O)c2cnc3ccc(Cl)cn23)cc1)c1cc2cnccc2[nH]1` , report pIC50.
Resp: 7.88

Req: Please look at this molecule and report its pIC50: `O=C(NCc1ccc(S(=O)(=O)c2cccc(C(F)(F)F)n2)cc1)c1ccc2nccn2c1`
Resp: 8.06

Req: For the molecule `Cc1ccc(S(=O)(=O)c2ccc(CNC(=O)c3cc4cnccc4[nH]3)cc2)cn1` , report pIC50.
Resp: 7.25
